% Inhibition values, listed per item
System: P. falciparum stage V gametocytes
Set-up: BacTiter-Glo ATP luminescence viability of purified stage V gametocytes in 384-well plates, per cent inhibition versus DMSO
Conditions: 48 h, 5 µM; inhibitor
Screen size: about 13,000 compounds; about 3,200 (25%) showed an effect of 50% or more. Some of the results follow.
Respond numerically; units are % and should not be typed.

Below are worked cases with known answers.
>  <compound>
CN(C)Cc1c(O)ccc2oc(Cc3ccccc3)cc12

>  <resultUnits>
%

>  <% Inhibition>
62.06

$$$$
>  <compound>
CCOC(=O)c1ccc(NC(=O)N[C@@H](Cc2ccccc2)C(=O)NC2CCN(Cc3ccc(OCCCN(C)C)cc3)C2)cc1 (stereo partly shown)

>  <resultUnits>
%

>  <% Inhibition>
106.4

$$$$
>  <compound>
CCC(Cc1ccccc1)c1cc(O)c(Cc2ccc(-c3ccccc3)cc2)c(=O)o1 (stereo not shown)

>  <resultUnits>
%

>  <% Inhibition>
-3.123

$$$$

API: the following record is the query input.
Data request: Note % Inhibition for the compound shown: "CN(C)Cc1cc2c(O)c(Cc3ccccc3)ccc2o1"
Data returned: 7.975

* * *

Tested on: P. falciparum stage V gametocytes
Set-up: BacTiter-Glo ATP luminescence viability of purified stage V gametocytes in 384-well plates, per cent inhibition versus DMSO
Conditions: 48 h, 5 µM; inhibitor
The whole screen tested about 13,000 compounds, of which about 3,200 (25%) showed an effect of 50% or more. The list shows a part of the results.
quantityName: % Inhibition (%)
Lab book: enter the figure in %, no units written.

Previously resolved entries follow.
>  <molecule>
C#CCOc1ccccc1CN1CCC(N2CCc3cc(NC(=O)c4cc(C)on4)ccc32)C1 (centres unmarked) [TCMDC-135075]

>  <targetOrTestSystem>
P. falciparum stage V gametocytes

>  <quantityName>
% Inhibition

>  <numericReadout>
-4.764

$$$$
>  <molecule>
CS(=O)(=O)CCNCc1ccc(-c2ccc3ncnc(Nc4ccc(OCc5ccccc5)c(Cl)c4)c3c2)o1 [TCMDC-138467]

>  <targetOrTestSystem>
P. falciparum stage V gametocytes

>  <quantityName>
% Inhibition

>  <numericReadout>
19.81

$$$$
>  <molecule>
CN(C)Cc1ccc(-c2ccc3c(Nc4ccc(Oc5ccccn5)cc4)ccnc3c2)o1 [TCMDC-138425]

>  <targetOrTestSystem>
P. falciparum stage V gametocytes

>  <quantityName>
% Inhibition

>  <numericReadout>
93.82

$$$$

Data request: Name the recorded % Inhibition of the molecule listed here: CN(C)CCN(C)Cc1ccc(-c2ccc3c(Nc4ccc(Oc5ccccn5)cc4)ccnc3c2)o1 [TCMDC-138426]
Data returned: 89.24

Data request: Quote % Inhibition reported for Clc1cc2c(Nc3ccc(Oc4ccccc4)cc3)ccnc2cc1-c1ccc(CNCCN2CCOCC2)o1 [TCMDC-138464] please.
Data returned: 21.03

Data request: Query % Inhibition for CN(C)CCNCc1ccc(-c2ccc3c(Nc4ccc(Oc5ccccc5)cc4)ccnc3c2)o1 [TCMDC-138399]
Data returned: 96.18

Data request: Identify the reported % Inhibition for the following entry. Nc1cc(-c2ccc3c(N)nccc3c2)ccc1Cl [TCMDC-136895]
Data returned: -23.38

Data request: Using the record for c1ccc(Oc2ccc(Nc3ccnc4ccc(-c5ccccn5)cc34)cc2)cc1 [TCMDC-138118] , state its measured % Inhibition.
Data returned: -22.81
